Test system: Staphylococcus aureus
Test: Bactericidal activity against Staphylococcus aureus ATCC 29213 incubated for 24 hrs followed by replating on agar plate and measured after overnight incubation
Type: functional
Conditions: ATCC 29213, 24 h, read-out: MBC>99.9
Documented MBC across a set of substances
Kindly answer with a numeric value in µM, unit omitted.

Examples from the recorded data:
Substance | Experimental endpoint | Recorded number
H-AARRILRWIFR-NH2 | MBC | 8
H-AARIILRARFR-NH2 | MBC | 8
H-AARIILRIRFR-NH2 | MBC | 4
H-AARIILRWFRR-NH2 | MBC | 8

**Q:** Name the value of MBC reported for `H-AARIILRLRFR-NH2` when tested on Staphylococcus aureus.
**A:** 4

**Q:** Name the value of MBC reported for `H-AARIILRFRFR-NH2` when tested on Staphylococcus aureus.
**A:** 4

**Q:** Name the value of MBC reported for `H-AARIILRYRFR-NH2` when tested on Staphylococcus aureus.
**A:** 8

**Q:** Name the value of MBC reported for `H-AARIILRTRFR-NH2` when tested on Staphylococcus aureus.
**A:** 32

These measurements were taken from ChEMBL document CHEMBL4350958.
